# Protocol notes: Toxicity liver stage against HepG2, at 10uM
# Type: cell-based
# Set-up: test concentration 10 uM, cell line HepG2-A16-CD81EGFP
# Conditions: human, HepG2-A16-CD81EGFP cells; read-out: INHIBITION
Recorded metric: cytotoxicity at 10 µM (%)

O=S(=O)(Cc1ccccc1Cl)NCCCN1CCCC1 :: -4.54
N[C@@H]1c2ccccc2C2(CCN(c3cccc(C(F)(F)F)n3)CC2)[C@H]1O :: 0.243
N#CCC(=O)NCc1nnc2n1CCN(Cc1ccsc1)C2 :: -131
Cc1ccc(-c2nc(CSCCC(=O)NC(N)=O)co2)c(C)c1 :: -6.4
Cc1cccc(C)c1NC(=O)c1cc(S(N)(=O)=O)c(C)o1 :: -4.27
CC(C)(C)NS(=O)(=O)c1ccccc1CNCc1ccccc1 :: 5.74
Cn1c(CN2CCOCC2)cc(=O)c(O)c1CN1CCCC1 :: -1.07
CC(=O)Nc1nc(CN2CCOC(Cn3nc(C)cc3C)C2)cs1 (centres undefined) :: 4.23
O=C(Nc1cc(-n2cccc2)ccc1F)N1CCCC1 :: -4.22
Cc1nnc(N2CCC(CCN(C)C)CC2)c(C#N)c1C :: -1.33
CS(=O)(=O)N[C@H]1CN(C(=O)c2cscn2)[C@@H]2CCCO[C@H]12 :: -84.6
CN(C)[C@@H]1CCN(c2ncccn2)[C@H]1Cc1ccncc1 :: -17.9
CC(=O)c1cc(C(=O)N2CC[C@H]3CC[C@@H](C2)N3C)c(=O)[nH]c1C :: 11.4
CCN(CCO)Cc1cn(-c2cccc(F)c2)nc1-c1ccc(C)o1 :: 8.32
CCCn1ccnc1CN1CCc2[nH]cnc2C1Cc1ccccc1 (centres undefined) :: -15.8
CCCC(C(=O)NCCc1nc(C)cs1)N(C)C (centres undefined) :: -4.17
Cc1ccc(OCC(C)NS(=O)(=O)N(C)C)cc1 (centres undefined) :: 8.81
COc1cccc(OC)c1CC(=O)NC(C#N)c1ccsc1 (centres undefined) :: 14.9
O=C(NC1CC1)N1CCOCC2(C1)CN(c1ccccc1)C(=O)CO2 (centres undefined) :: -1.37
CN(C(=O)c1ccncc1F)c1ccccc1S(C)(=O)=O :: 2.23
CSCc1nc(CCNC(=O)c2cnn(C(C)C)c2)cs1 :: -7.91
Cc1nnc(NCCC(=O)NCc2ccccc2)c(C#N)c1C :: -3.57
CCc1nsc(N2CCN(CC(=O)NCc3cccnc3)CC2)n1 :: -4.52
c1cc(CNCCC2CCCO2)ccn1 (centres undefined) :: -0.95

----------
molecules and their reported cytotoxicity at 10 µM
# Protocol notes: Toxicity liver stage against HepG2, at 10uM
# Assay type: cell-based
# Set-up: test concentration 10 uM, cell line HepG2-A16-CD81EGFP
# Conditions: human, HepG2-A16-CD81EGFP cells; read-out: INHIBITION
Recorded metric: cytotoxicity at 10 µM (%)

CCO[C@@H]1CCN(c2ccc(C)nn2)[C@@H]1Cc1cnn(C)c1 :: 2.2
Cc1cc(=O)n2nc(CNc3cc(Cl)ccc3C)nc2[nH]1 :: -5.64
Cc1ncc2c(n1)CN(CC(=O)Nc1ccc(Cl)cn1)CC2 :: -6.19
CCNC(=O)N[C@H]1C[C@@H](Cc2cc(CN3CCCCC3)on2)C1(C)C :: -5.46
CN1CCN([C@@H]2CN(C(=O)c3ccnnc3)[C@@H]3CCCO[C@H]23)CC1 :: 7.16
Cc1cnc(N2CCOC3(CCCN(c4ncccn4)C3)C2)nc1 (stereo unspecified) :: 9.19
COCCS(=O)(=O)N(Cc1ccsc1)c1ccccc1 :: -4.76
COC(=O)c1cc(C(=O)N2CCN(C)CC2)n(-c2ccccc2)n1 :: -13.2
CCN(Cc1c(C)nn(CC)c1C)S(=O)(=O)c1cnn(C)c1C :: 9.65
CCN(CC)CCNC(=O)c1cc(OC)c2ccoc2c1 :: -0.971
CC(C)=CCN1CCN(CCCc2ccccc2)[C@H]2CS(=O)(=O)C[C@H]21 :: -1.06
